Reference source: BindingDB's records for doi:10.1016/j.bioorg.2016.06.004

# TESTED TARGET: Seed linoleate 13S-lipoxygenase-1 (Glycine max, UniProt P08170)
# Sequence (P08170 whole entry): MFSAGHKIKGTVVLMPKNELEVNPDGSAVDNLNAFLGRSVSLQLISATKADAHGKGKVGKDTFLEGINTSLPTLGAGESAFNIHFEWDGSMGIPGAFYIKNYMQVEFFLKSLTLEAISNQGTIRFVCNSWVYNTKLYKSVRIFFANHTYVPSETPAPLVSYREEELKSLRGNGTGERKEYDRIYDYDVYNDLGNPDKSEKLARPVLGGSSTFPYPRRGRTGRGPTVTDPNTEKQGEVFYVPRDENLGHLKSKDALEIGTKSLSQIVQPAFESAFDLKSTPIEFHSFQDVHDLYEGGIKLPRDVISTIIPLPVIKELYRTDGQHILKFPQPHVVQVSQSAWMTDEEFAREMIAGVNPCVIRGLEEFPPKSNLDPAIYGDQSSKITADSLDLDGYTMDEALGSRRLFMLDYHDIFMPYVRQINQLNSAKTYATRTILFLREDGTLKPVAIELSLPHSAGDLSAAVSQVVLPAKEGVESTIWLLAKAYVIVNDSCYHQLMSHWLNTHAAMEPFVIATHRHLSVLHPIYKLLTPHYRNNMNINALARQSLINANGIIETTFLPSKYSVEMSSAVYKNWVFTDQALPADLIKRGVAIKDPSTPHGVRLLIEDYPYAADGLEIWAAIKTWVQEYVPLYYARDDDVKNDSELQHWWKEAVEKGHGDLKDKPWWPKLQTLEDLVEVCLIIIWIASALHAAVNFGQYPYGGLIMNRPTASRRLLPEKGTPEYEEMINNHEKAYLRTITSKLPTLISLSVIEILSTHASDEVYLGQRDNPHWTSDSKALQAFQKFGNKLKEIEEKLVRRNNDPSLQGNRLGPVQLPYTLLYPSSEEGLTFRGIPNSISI
Entries and their pIC50 values follow.
// field semantics: pIC50 = negative decimal log of concentration (mol/L)

>  <COMPOUND>
COc1ccc2nc(NCC(O)COc3ccc4c(C)cc(=O)oc4c3)sc2c1 (configuration not stated)

>  <ASSAY READOUT>
pIC50

>  <REPORTED VALUE>
8.67

$$$$

API: the following record is the query input.
Query: Notebook entry, Seed linoleate 13S-lipoxygenase-1 (Glycine max, UniProt P08170) assay: pIC50 of Cc1cc(=O)oc2cc(OCC(O)CNc3nc4ccc(Cl)cc4s3)ccc12 (configuration not stated) = ?
Response: 8.55
